Kindly state pEC50 for each of the entries shown.
Molecular target: Nuclear receptor subfamily 1 group I member 2 (Homo sapiens, UniProt O75469)
Sequence (O75469 whole entry): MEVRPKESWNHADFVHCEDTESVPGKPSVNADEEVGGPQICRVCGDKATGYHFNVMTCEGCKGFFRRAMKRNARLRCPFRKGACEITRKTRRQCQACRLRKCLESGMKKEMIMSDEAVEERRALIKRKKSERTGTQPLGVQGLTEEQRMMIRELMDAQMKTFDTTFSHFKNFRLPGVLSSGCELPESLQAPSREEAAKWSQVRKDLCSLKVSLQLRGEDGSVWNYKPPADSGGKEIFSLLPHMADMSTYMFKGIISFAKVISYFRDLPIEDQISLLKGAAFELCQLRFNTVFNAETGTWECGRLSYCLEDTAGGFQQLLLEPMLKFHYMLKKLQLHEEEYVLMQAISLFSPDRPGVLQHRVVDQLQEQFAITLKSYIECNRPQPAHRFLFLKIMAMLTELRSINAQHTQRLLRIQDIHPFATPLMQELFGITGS
Assay: Transactivation of PXR (unknown origin)
Type: toxicity
pEC50: −log10 of the molar value.

Give the measured pEC50 of CCCOc1c(CCC)cc(-c2ccccc2-c2nn[nH]n2)cc1NC(=O)Nc1ccc(C)cc1 .
< 5.05

Give the measured pEC50 of CCCOc1c(CCC)cc(-c2ccccc2C(=O)O)cc1NC(=O)Nc1ccc(C)cc1 .
< 4.70

###

Assay: Metabolic stability in rat liver microsomes assessed as compound remaining at 0.5 uM incubated for 10 mins relative to control
Type: ADME, Microsome
Conditions: liver microsomes, read-out: Stability
Rule: measured remaining at 10 min, 0.5 µM below 80% gets satisfied; anything equal to or greater than 80% gets not satisfied.

Could you please tell me whether remaining at 10 min, 0.5 µM recorded for CCCC(CCC)Oc1ccc(-c2ccccc2-c2nn[nH]n2)cc1NC(=O)Nc1ccc(C)cc1 is less than 80%?
satisfied

Could you please tell me whether remaining at 10 min, 0.5 µM recorded for Cc1ccc(NC(=O)Nc2cc(-c3ccccc3-c3nn[nH]n3)cc3c2OC(C)(C)[C@H]3c2ccccc2)cc1 (racemic) is less than 80%?
satisfied

Could you please tell me whether remaining at 10 min, 0.5 µM recorded for Cc1ccc(NC(=O)Nc2cc(-c3ccccc3-c3nn[nH]n3)ccc2OC(C(C)C)C(C)C)cc1 is less than 80%?
satisfied

Could you please tell me whether remaining at 10 min, 0.5 µM recorded for Cc1ccc(NC(=O)Nc2cc(-c3ccccc3-c3nn[nH]n3)cc3c2OCCCC3c2ccccc2)cc1 (stereo in doubt; 21) is less than 80%?
not satisfied

Could you please tell me whether remaining at 10 min, 0.5 µM recorded for Cc1ccc(NC(=O)Nc2cc(-c3ccccc3-c3nnn[nH]3)ccc2N(CC(C)C)CC(C)C)cc1 is less than 80%?
satisfied

Could you please tell me whether remaining at 10 min, 0.5 µM recorded for C=CC1(C=C)Oc2c(NC(=O)Nc3ccc(C)cc3)cc(-c3ccccc3-c3nn[nH]n3)cc2[C@@H]1c1ccccc1 is less than 80%?
not satisfied

Could you please tell me whether remaining at 10 min, 0.5 µM recorded for CCCOc1c(CCC)cc(-c2ccccc2C(=O)O)cc1NC(=O)Nc1ccc(C)cc1 is less than 80%?
not satisfied

Could you please tell me whether remaining at 10 min, 0.5 µM recorded for Cc1ccc(NC(=O)Nc2cc(-c3ccccc3-c3nn[nH]n3)cc3c2OCC=CC3c2ccccc2)cc1 (racemic) is less than 80%?
satisfied

Could you please tell me whether remaining at 10 min, 0.5 µM recorded for CCCOc1c(CCC)cc(-c2ccccc2-c2nn[nH]n2)cc1NC(=O)Nc1ccc(C)cc1 is less than 80%?
not satisfied

Could you please tell me whether remaining at 10 min, 0.5 µM recorded for Cc1ccc(NC(=O)Nc2cc(-c3ccccc3-c3nn[nH]n3)cc3c2O[C@@H](C)C/C=C\[C@H]3c2ccccc2)cc1 is less than 80%?
satisfied

Could you please tell me whether remaining at 10 min, 0.5 µM recorded for Cc1ccc(NC(=O)Nc2cc(-c3ccccc3-c3nn[nH]n3)cc3c2O[C@@H](C)CCC[C@H]3c2ccccc2)cc1 is less than 80%?
satisfied

Could you please tell me whether remaining at 10 min, 0.5 µM recorded for C=C[C@H]1Oc2c(NC(=O)Nc3ccc(C)cc3)cc(-c3ccccc3-c3nnn[nH]3)cc2[C@@H]1c1ccccc1 (racemic) is less than 80%?
not satisfied

Could you please tell me whether remaining at 10 min, 0.5 µM recorded for C=C[C@@H]1Oc2c(NC(=O)Nc3ccc(C)cc3)cc(-c3ccccc3-c3nn[nH]n3)cc2[C@@H]1c1ccccc1 (racemic) is less than 80%?
satisfied

Could you please tell me whether remaining at 10 min, 0.5 µM recorded for COc1ccc(-c2ccc(Oc3ccccc3C(C)(C)C)c(NC(=O)Nc3ccccc3F)c2)cc1C(=O)O is less than 80%?
not satisfied

Could you please tell me whether remaining at 10 min, 0.5 µM recorded for CC(C)CN(CC(C)C)c1ccc(-c2ccccc2C(=O)O)cc1NC(=O)Nc1ccccc1F is less than 80%?
satisfied
